Assay protocol: Surface tension measurements by pendant drop method in water (cmc and surface properties)
Assay type: physicochemical
Condition description: water, pendant drop
Endpoint: γcmc (surface tension at cmc) (mN m^−1)
Use mN m^−1 as the unit, but write only the number.

Structure smiles: CCCCCCCC/C=C\CCCCCCCC(=O)NCCC[N+](C)(C)C/C=C/C[N+](C)(C)CCCNC(=O)CCCCCCC/C=C\CCCCCCCC.[Br-].[Br-]
γcmc (surface tension at cmc) [mN m^−1]: 35.67

Okay, now this molecule:
Task: I would be grateful if you could share the reported γcmc (surface tension at cmc) for CCCCCCCC/C=C\CCCCCCCC(=O)NCCC[N+](C)(C)C/C=C\C[N+](C)(C)CCCNC(=O)CCCCCCC/C=C\CCCCCCCC.[Cl-].[Cl-] .
Output: 37.23

---

Assay protocol: Surface tension measurements by pendant drop method in water (cmc and surface properties)
Type: physicochemical
Condition description: air-water interface
Endpoint: Γmax × 10^6 (highest surface access at the air-water interface) (mol m^−2)
Number only, in mol m^−2; omit the unit.

Recorded Γmax × 10^6 (highest surface access at the air-water interface), per entry:
Compound: CCCCCCCC/C=C\CCCCCCCC(=O)NCCC[N+](C)(C)C/C=C\C[N+](C)(C)CCCNC(=O)CCCCCCC/C=C\CCCCCCCC.[Cl-].[Cl-] [Surfactant 4]
Recorded result: 1.64

Compound: CCCCCCCCCCCC(=O)NCCC[N+](C)(C)C/C=C/C[N+](C)(C)CCCNC(=O)CCCCCCCCCCC.[Br-].[Br-] [Surfactant 1]
Recorded result: 1.81

Compound: CCCCCCCC/C=C\CCCCCCCC(=O)NCCC[N+](C)(C)C/C=C/C[N+](C)(C)CCCNC(=O)CCCCCCC/C=C\CCCCCCCC.[Br-].[Br-] [Surfactant 3]
Recorded result: 1.92

Compound: CCCCCCCCCCCC(=O)NCCC[N+](C)(C)C/C=C\C[N+](C)(C)CCCNC(=O)CCCCCCCCCCC.[Cl-].[Cl-] [Surfactant 2]
Recorded result: 1.60

Compound: CCCCCCCC/C=C\CCCCCCCC(=O)NCCC[N+](C)(C)CCCC[N+](C)(C)CCCNC(=O)CCCCCCC/C=C\CCCCCCCC.[Br-].[Br-] [Surfactant 5]
Recorded result: 2.26

Now consider the entry below.
Task: Which Γmax × 10^6 (highest surface access at the air-water interface) value is on record for CCCCCCCC/C=C\CCCCCCCC(=O)NCCC[N+](C)(C)CCCCCC[N+](C)(C)CCCNC(=O)CCCCCCC/C=C\CCCCCCCC.[Br-].[Br-] [Surfactant 6] ?
Output: 2.38

---

Quick reference: Amin (nominal surface area per molecule) of the listed items.
Assay protocol: Surface tension measurements by pendant drop method in water (cmc and surface properties)
Format: physicochemical
Condition description: air-water interface
Remember to quote the unit after the number.

Below: 2 compounds and their reported Amin (nominal surface area per molecule).
Compound: CCCCCCCCCCCC(=O)NCCC[N+](C)(C)C/C=C\C[N+](C)(C)CCCNC(=O)CCCCCCCCCCC.[Cl-].[Cl-] [Surfactant 2]
Endpoint: Amin (nominal surface area per molecule)
Recorded result: 1.05 nm^2

Compound: CCCCCCCCCCCC(=O)NCCC[N+](C)(C)C/C=C/C[N+](C)(C)CCCNC(=O)CCCCCCCCCCC.[Br-].[Br-] [Surfactant 1]
Endpoint: Amin (nominal surface area per molecule)
Recorded result: 0.91 nm^2

Turning now to a further compound:
Task: // query Amin (nominal surface area per molecule) value for entry CCCCCCCC/C=C\CCCCCCCC(=O)NCCC[N+](C)(C)C/C=C/C[N+](C)(C)CCCNC(=O)CCCCCCC/C=C\CCCCCCCC.[Br-].[Br-] [Surfactant 3]
Output: 0.86 nm^2
